The values you see were collected from ChEMBL document CHEMBL4495564.

# target_of_assay: Replicase polyprotein 1ab (Middle East respiratory syndrome-related coronavirus (isolate UnitedKingdom/H123990006/2012) (Betacoronavirus England 1) (Humancoronavirus EMC))
# run_conditions: at 10 µM
Structures can show the parent of a compound that is named as a salt.
# inhibition >= 5% gives Yes, anything below gives No

compound	class
C/C=C1\C(OC2OC(CO)C(O)C(O)C2O)OC=C(C(=O)OC)C1CC(=O)OCCc1ccc(O)c(O)c1 (stereo unspecified)	No
CN1CCc2cccc3c2[C@H]1Cc1ccc(O)c(O)c1-3 [APOMORPHINE HYDROCHLORIDE]	Yes
S=C(S)N1CCCC1	Yes
CC(C)c1ccc2oc3nc(N)c(C(=O)O)cc3c(=O)c2c1	No
Oc1c(I)cc(I)c(O)c1I	No
Cc1ccc(S(=O)(=O)/C=C/C#N)cc1	Yes
C/N=c1/nc(-c2ccccc2)n(-c2ccccc2)s1	Yes
O=C(O)[C@@H](S)[C@@H](S)C(=O)O	No
O=C(O)c1ccc(SSc2ccc(C(=O)O)cn2)nc1	Yes

* * *

# target_of_assay: Replicase polyprotein 1ab (Middle East respiratory syndrome-related coronavirus (isolate UnitedKingdom/H123990006/2012) (Betacoronavirus England 1) (Humancoronavirus EMC))
# test_description: biochemical
# Assay type: functional
# run_conditions: tested as the Ag salt or complex
pIC50: −log10 of the molar value.

sample_smiles	pIC50
Nc1ccc(S(=O)(=O)Nc2ncccn2)cc1	< 5.00

* * *

Collected IC50 values appear next to each entry.
# target_of_assay: Replicase polyprotein 1ab (Severe acute respiratory syndrome coronavirus 2, UniProt P0DTD1)
# test_description: biochemical
result_type: IC50 (nM)

sample_smiles	data_value
S=C(S)N1CCCC1	210
O=C(O)[C@@H](S)[C@@H](S)C(=O)O	1720
Cc1ccc(-n2sc(=O)n(Cc3ccc(F)cc3)c2=O)cc1	230
COc1cccc2c1C(=O)c1c(O)c3c(c(O)c1C2=O)C[C@@](O)(/C(CO)=N/NC(=O)CCCCCN1C(=O)C=CC1=O)C[C@@H]3O[C@H]1C[C@H](N)[C@H](O)[C@H](C)O1	580
CCc1ccc(/C=C/C(=O)Nc2ccc(C(C)=O)cc2)o1	4950

* * *

Collected inhibition values appear next to each entry.
# target_of_assay: Chymotrypsin (Homo sapiens) (UniProt Q99895+P17538+P40313+Q6GPI1)
# test_description: Chymotrypsin inhibition percentage at 10 µM by FRET kind of response from peptide substrate
# Assay type: functional

compound	units_of_measure	inhibition
Oc1cc2c(cc1C(c1ccc(C(F)(F)F)cc1)N1CCOCC1)OCO2 (stereo not given)	%	7.04
Cc1ccc(-n2sc(=O)n(Cc3ccc(F)cc3)c2=O)cc1	%	24.5
Nc1ccc2cc3ccc(N)cc3nc2c1 [PROFLAVINE]	%	16.3
Nc1cc2c3ccccc3ccc2c2ccccc12	%	-3.88
CC(C)c1ccc2oc3nc(N)c(C(=O)O)cc3c(=O)c2c1 [AMLEXANOX]	%	4.03
CC(CN1CC(=O)NC(=O)C1)N1CC(=O)NC(=O)C1 (stereo not given) [RAZOXANE]	%	-0.92
COC(=O)CC[C@H](NC(=O)[C@H](CC(=O)OC)NC(=O)OCc1ccccc1)C(=O)N[C@H](C(=O)N[C@@H](CC(=O)OC)C(=O)CF)C(C)C	%	11.2
Nc1nc(S)c2ncn(C3OC(CO)C(O)C3O)c2n1 (stereo not given)	%	7.56
CCN1CCN(C(c2ccc(C(F)(F)F)cc2)c2ccc3cccnc3c2O)CC1 (stereo not given)	%	3.72
CCOc1cc(C(Nc2cc(C)ccn2)c2ccc3cccnc3c2O)ccc1OC (stereo not given)	%	13.3

* * *

# target_of_assay: Chymotrypsin (Homo sapiens) (UniProt Q99895+P17538+P40313+Q6GPI1)
# test_description: Chymotrypsin inhibition percentage at 10 µM by FRET kind of response from peptide substrate
# Format: functional
result_type: inhibition (%)

sample_smiles	target_of_assay	result_type	data_value
O=C(c1ccc(/C=C/c2n[nH]c3ccccc23)cc1)N1CCNCC1	Chymotrypsin (Homo sapiens) (UniProt Q99895+P17538+P40313+Q6GPI1)	inhibition	3.6
O=c1sn(-c2cccc3ccccc23)c(=O)n1Cc1ccccc1	Chymotrypsin (Homo sapiens) (UniProt Q99895+P17538+P40313+Q6GPI1)	inhibition	30.7
Sc1nnnn1-c1ccccc1	Chymotrypsin (Homo sapiens) (UniProt Q99895+P17538+P40313+Q6GPI1)	inhibition	4.48
O=c1c(O)c(-c2cc(O)c(O)c(O)c2)oc2cc(O)cc(O)c12	Chymotrypsin (Homo sapiens) (UniProt Q99895+P17538+P40313+Q6GPI1)	inhibition	3.78
O=C(CCl)c1ccccc1	Chymotrypsin (Homo sapiens) (UniProt Q99895+P17538+P40313+Q6GPI1)	inhibition	7.75
Cc1ccc(C)c(-n2sc3cc(F)ccc3c2=O)c1	Chymotrypsin (Homo sapiens) (UniProt Q99895+P17538+P40313+Q6GPI1)	inhibition	-0.52
Cn1sc(=O)n(Cc2ccccc2)c1=O	Chymotrypsin (Homo sapiens) (UniProt Q99895+P17538+P40313+Q6GPI1)	inhibition	4.03
CC(C)(C)OC(=O)NCCc1nnc(S(=O)(=O)Cc2ccc(Cl)cc2Cl)o1	Chymotrypsin (Homo sapiens) (UniProt Q99895+P17538+P40313+Q6GPI1)	inhibition	103
Cc1c(-c2cnccn2)ssc1=S	Chymotrypsin (Homo sapiens) (UniProt Q99895+P17538+P40313+Q6GPI1)	inhibition	9.89
CCOC(=O)Cc1ccc(-c2ccccc2)cc1	Chymotrypsin (Homo sapiens) (UniProt Q99895+P17538+P40313+Q6GPI1)	inhibition	-0.88
Sc1nnc(Nc2ccccc2)s1	Chymotrypsin (Homo sapiens) (UniProt Q99895+P17538+P40313+Q6GPI1)	inhibition	4.67
O=[N+]([O-])c1ccc(Sc2cccc[n+]2[O-])c2nonc12	Chymotrypsin (Homo sapiens) (UniProt Q99895+P17538+P40313+Q6GPI1)	inhibition	4.87

* * *

# target_of_assay: Replicase polyprotein 1ab (Severe acute respiratory syndrome coronavirus 2)
# test_description: biochemical
pIC50: −log10 of the molar value.
# pIC50 >= 6 gives 1, anything below gives -1

compound	class
Cc1c(OCC(F)(F)F)ccnc1C[S+]([O-])c1nc2ccccc2[nH]1 (centres undefined)	1
[O-][n+]1ccccc1S [PYRITHIONE ZINC]	-1
CC(C)(C)OC(=O)NCCc1nnc(S(=O)(=O)Cc2ccc(Cl)cc2Cl)o1	-1
O=C1C(Cl)=C(Cl)C(=O)C(Cl)=C1Cl	1
COc1nc2ccc(Br)cc2cc1[C@@H](c1ccccc1)[C@@](O)(CCN(C)C)c1cccc2ccccc12	-1
C=C1C(=O)[C@]23[C@H](O)[C@H]1CC[C@@H]2[C@@]12CO[C@]3(O)C[C@@H]1C(C)(C)CC[C@@H]2O	-1
[O-][n+]1ccccc1S [PYRITHIONE]	1
O=C(/C=C/c1ccc(O)c2c1[C@@H](C(=O)O[C@H](Cc1ccc(O)c(O)c1)C(=O)O)[C@H](c1ccc(O)c(O)c1)O2)O[C@H](Cc1ccc(O)c(O)c1)C(=O)O	-1
Cc1c(-c2cnccn2)ssc1=S	1

* * *

# target_of_assay: Replicase polyprotein 1ab (Middle East respiratory syndrome-related coronavirus (isolate UnitedKingdom/H123990006/2012) (Betacoronavirus England 1) (Humancoronavirus EMC), UniProt K9N7C7)
# Sequence (K9N7C7 3248-3553 limits assumed): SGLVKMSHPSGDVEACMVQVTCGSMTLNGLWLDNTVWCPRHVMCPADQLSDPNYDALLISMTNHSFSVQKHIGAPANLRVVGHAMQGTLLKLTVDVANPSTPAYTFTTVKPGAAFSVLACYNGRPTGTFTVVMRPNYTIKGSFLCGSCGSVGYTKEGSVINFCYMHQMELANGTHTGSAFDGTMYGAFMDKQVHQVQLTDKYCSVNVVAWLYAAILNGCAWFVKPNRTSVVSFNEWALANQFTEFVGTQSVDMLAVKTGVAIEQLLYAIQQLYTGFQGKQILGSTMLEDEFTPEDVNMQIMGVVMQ
# test_description: biochemical
# Format: functional
# run_conditions: tested as the Zn salt or complex

sample_smiles	IC50
[O-][n+]1ccccc1S	> 10 µM

* * *

Collected pIC50 values appear next to each entry.
# target_of_assay: Replicase polyprotein 1ab (Middle East respiratory syndrome-related coronavirus (isolate UnitedKingdom/H123990006/2012) (Betacoronavirus England 1) (Humancoronavirus EMC))
# test_description: biochemical
# Type: functional
pIC50: −log10 of the molar value.

compound	pIC50
O=C(O)c1ccc(SSc2ccc(C(=O)O)cn2)nc1	< 5.00
C[C@@](Cc1ccc(O)c(O)c1)(NN)C(=O)O [CARBIDOPA ANHYDROUS]	< 5.00
O=C1C2CC=CCC2C(=O)N1SC(Cl)(Cl)Cl (stereo not given) [CAPTAN]	< 5.00
Cc1ccc(-n2sc(=O)n(Cc3ccc(F)cc3)c2=O)cc1	< 5.00
O=C(O[C@@H]1Cc2c(O)cc(O)cc2O[C@@H]1c1cc(O)c(O)c(O)c1)c1cc(O)c(O)c(O)c1 [EPIGALOCATECHIN GALLATE]	< 5.00

* * *

Collected pIC50 values appear next to each entry.
# target_of_assay: Replicase polyprotein 1ab (Severe acute respiratory syndrome coronavirus 2, UniProt P0DTD1)
# test_description: biochemical
pIC50: −log10 of the molar value.
result_type: pIC50

compound	result_type	relation_qualifier	data_value
Sc1nnnn1-c1ccccc1	pIC50	=	5.63
O=c1c(O)cccc2cc(O)c(O)c(O)c12 [PURPUROGALLIN]	pIC50	=	5.34
C[C@@H]1O[C@@H](Oc2c(-c3cc(O)c(O)c(O)c3)oc3cc(O)cc(O)c3c2=O)[C@@H](O)[C@H](O)[C@H]1O	pIC50	=	5.44
C/N=c1/nc(-c2ccccc2)n(-c2ccccc2)s1	pIC50	=	6.01
CN1CCN(C(=O)c2ccc(-c3ccc4c(C=O)c(O)ccc4c3)s2)CC1	pIC50	=	5.88
C/C=C1\C(OC2OC(CO)C(O)C(O)C2O)OC=C(C(=O)OC)C1CC(=O)OCCc1ccc(O)c(O)c1 (stereo unspecified)	pIC50	=	5.47
Sc1nnc(Nc2ccccc2)s1	pIC50	=	6.41
CC(CN1CC(=O)NC(=O)C1)N1CC(=O)NC(=O)C1 (stereo unspecified) [RAZOXANE]	pIC50	=	5.50
CCOc1cc(C(Nc2cc(C)ccn2)c2ccc3cccnc3c2O)ccc1OC (stereo unspecified)	pIC50	>	6.57
Cc1ccc(S(=O)(=O)/C=C/C#N)cc1	pIC50	=	6.09
Cc1ccc(S(=O)(=O)N[C@@H](Cc2ccccc2)C(=O)CCl)cc1 [TPCK]	pIC50	=	5.86
